# growth per entry
system: MDA-MB-468 breast; assay: NCI-60 one-dose screen, 48 h (100 = growth as untreated, 0 = no growth, -100 = all killed); details: 10 µM unless noted
The panel holds about 83,000 compounds, 20% with a hit somewhere; the sample as a whole holds those more often.
Return type: number; implicit unit %.

Q. Reported growth, compound `COc1ccc(-c2nc3ccc(-c4nnc(SCC(=O)Nc5ccc(C(C)=O)cc5)o4)cc3[nH]2)cc1` : ____
A. 109

Q. Reported growth, compound Clc1cc(Cl)cc(N2N=C(c3cccc(Nc4ccncc4)c3)CC2c2ccc3c(c2)OCO3)c1 (centres undefined) : ____
A. 24.8

New cases:
Q. Reported growth, compound `Cc1ccccc1Nc1nc(SC(C)C)nc(-c2ccccc2)c1C#N` : ____
A. 74.8

Q. Reported growth, compound `O=C(CCCSc1nc(-c2ccccc2)cc(-c2ccccc2)n1)NO` : ____
A. -38

Q. Reported growth, compound `COc1cc(CCn2nnc3c(NCCCCO)ncnc32)cc(OC)c1` : ____
A. 93.5

Q. Reported growth, compound Cc1ccc(C2C=C(c3ccc(Cl)cc3)N=C3SC=CN32)c(Br)c1 (centres undefined) : ____
A. 69.7

Q. Reported growth, compound `CC(C)[C@@H]1CC[C@]2(C(=O)NCCCCN=C(N)N)CC[C@]3(C)[C@H](CC[C@@H]4[C@@]5(C)CCC(=O)C(C)(C)[C@@H]5CC[C@]43C)[C@@H]12` : ____
A. 10.6

Q. Reported growth, compound `COc1ccc(CNc2c3ccccc3nc3ccccc23)cc1OC` : ____
A. -22.7

---

# growth per entry
system: MDA-MB-468 breast; assay: NCI-60 one-dose screen, 48 h (100 = growth as untreated, 0 = no growth, -100 = all killed); conditions: 10 µM unless noted
About 83,000 compounds went through this panel and 20% of them were active in at least one assay; those are over-represented in the sample as a whole.
Return type: number; implicit unit %.

Example entries begin here.
Q. Reported growth, compound N#CC1=C(Nc2ccccc2Cl)SC(c2ccccc2O)NC1=O (stereo not given) : ____
A. 122

Q. Reported growth, compound CCC(=O)C(CC)c1cccc(OC)c1 (stereo not given) : ____
A. 102

Q. Reported growth, compound `Cc1csc(Nc2nc(-c3cccc(Br)c3)nc(C(Cl)(Cl)Cl)n2)n1` : ____
A. -29.8

Q. Reported growth, compound `Cc1cc(N2CCCCC2)nc(N(CCNc2ccnc3cc(Cl)ccc23)Cc2ccccn2)n1` : ____
A. 3.63

Q. Reported growth, compound `COc1ccc(Cn2cc3c(c2-c2cc(OC)c(OC)c(OC)c2)CCc2cnoc2-3)cc1[N+](=O)[O-]` : ____
A. -1.72

New cases:
Q. Reported growth, compound `Cn1cc(-c2nonc2-c2c[nH]c3ccc(Br)cc23)c2cc(Br)ccc21` : ____
A. 21

Q. Reported growth, compound `COC(=O)[C@@H](Cc1c[nH]c2ccccc12)NC(=O)[C@H](Cc1ccccc1)NCc1ccncc1` : ____
A. 103

Q. Reported growth, compound `Nn1c(=O)n(-c2cccc(C(F)(F)F)c2)c(=O)c2cc(-c3ccc(F)cc3F)ccc21` : ____
A. -5.36

Q. Reported growth, compound `Fc1ccc(-c2nn3c(-c4cc(C(F)(F)F)cc(C(F)(F)F)c4)nnc3s2)cc1` : ____
A. 25.5

Q. Reported growth, compound `C[C@@]1(C(=O)Nc2ccc(F)nc2)CCCN1c1nc(Nc2cc(C3CC3)[nH]n2)c2cccn2n1` : ____
A. 13.1

---

System: MDA-MB-468 breast
Test: NCI-60 one-dose screen, 48 h (100 = growth as untreated, 0 = no growth, -100 = all killed)
Details: 10 µM unless noted
Procedure: Growth inhibition of the MDA-MB-468 human Breast tumor cell line is measured as a screen for anti-cancer activity. Cells are grown in 96 well plates and exposed to the test compound for 48 hours. Compounds are tested at a single concentration, which is 10^-5 M for most compounds. The reported endpoint is percent growth (GI% or GIPRCNT), where numbers from 0 - 100% represent growth inhibition, and numbers from -100% - 0 represent cell death. […]
Compounds without any hit were thinned out: in the full panel of roughly 83,000, 20% have a hit.
Property name: growth (%)
Return type: number; implicit unit %.

Q. Reported growth, compound `COCCNc1ccc2c3c(cccc13)C(=O)N(CCN(C)C)C2=O` : ____
A. 45.2

Q. Reported growth, compound C=C(CNCCO)[C@@H]1CC[C@]2(CO)CC[C@]3(C)[C@H](CC[C@@H]4[C@@]5(C)CCC(NCCc6ccc(O)cc6)C(C)(C)[C@@H]5CC[C@]43C)[C@@H]12 (some centres undefined) : ____
A. -77.3

Q. Reported growth, compound `O=c1[nH]c2c(ccc3cnccc32)c2c1CCC2` : ____
A. -60.5

Q. Reported growth, compound `C=C1C(=O)O[C@H]2[C@H]1CC/C(COC(=O)/C=C\C(=O)NCc1ccc(Cn3c(=O)sn(CCI)c3=O)cc1)=C\CC[C@@]1(C)O[C@@H]21` : ____
A. -36.2

Q. Reported growth, compound `CCOC(=O)c1ccncc1` : ____
A. 89.1

---

System: MDA-MB-468 breast
Test: NCI-60 one-dose screen, 48 h
Details: 10 µM unless noted
Method: Growth inhibition of the MDA-MB-468 human Breast tumor cell line is measured as a screen for anti-cancer activity. Cells are grown in 96 well plates and exposed to the test compound for 48 hours. Compounds are tested at a single concentration, which is 10^-5 M for most compounds. The reported endpoint is percent growth (GI% or GIPRCNT), where numbers from 0 - 100% represent growth inhibition, and numbers from -100% - 0 represent cell death. […]
This is part of a sample that, as a whole, favours compounds with a hit. Of some 83,000 tested, about 20% had one in any assay. The source made the active and inactive calls. The calls were made as follows: active = growth percent below 10; inactive = the rest.
Pick one: 1 = active, 0 = inactive

Worked cases, answers included:
Q. So what was the verdict on `CCN(CC)c1ccc(/C=N/NC(=O)CSc2nc3ccccc3c(=O)n2CCc2ccc(S(N)(=O)=O)cc2)c(O)c1` in this test?
A. 1

Q. So what was the verdict on `CCNCCNc1cc(C2CCCCC2)c(C#N)c2nc3ccccc3n12` in this test?
A. 1

Q. So what was the verdict on `COc1ccc(-c2nn(-c3ccccc3)cc2/C=C/C(=O)c2ccc(NC(=O)CCCCCCC(=O)NO)cc2)cc1` in this test?
A. 0

Q. So what was the verdict on `C=C1C(=O)O[C@H]2[C@H]1CC/C(C(=O)NCCOCCOCC(=O)Nc1ccc(OC)c(C(N)=O)c1O)=C\CC[C@@]1(C)O[C@@H]21` in this test?
A. 0

Q. So what was the verdict on `COc1cc(CNCCCN2C(=O)c3ccc4c5c(ccc(c35)C2=O)C(=O)N(CCCNCc2cc(OC)c(OC)c(OC)c2)C4=O)cc(OC)c1OC` in this test?
A. 1

New cases:
Q. So what was the verdict on `CS(=O)(=O)c1ccc(C(=O)N/N=C/c2ccc3c(c2)OCO3)cc1` in this test?
A. 0

Q. So what was the verdict on c1ccc2c3c([nH]c2c1)C(c1ccc(C2NCCc4c2[nH]c2ccccc42)cc1)NCC3 (stereo unspecified) in this test?
A. 1

Q. So what was the verdict on `COc1cc2c(-c3cc4c(cc3CNCCc3ccc5c(c3)OCO5)OCO4)cccc2c(OC)c1O` in this test?
A. 1

Q. So what was the verdict on NC1=NC(c2ccccc2)N=C(Nc2ccccc2)N1 (stereo unspecified) in this test?
A. 1

Q. So what was the verdict on `O=C(C[n+]1ccnc2ccccc21)c1ccc(O)c(O)c1` in this test?
A. 1

Q. So what was the verdict on CC(=O)C1CCC2C3CC(C)=C4CC(O)CCC4(C)C3CCC12C (stereo unspecified) in this test?
A. 0

Q. So what was the verdict on `OC(CCN1CCCCC1)(c1ccccc1)c1ccccc1` in this test?
A. 0

Q. So what was the verdict on `Brc1ccc(/C=C(/C2=NCCN2)n2ccc3ccccc32)cc1` in this test?
A. 0

Q. So what was the verdict on `CCOC(=O)c1sc(-c2ccc(OS(=O)(=O)c3cccs3)c(C=O)c2)nc1C` in this test?
A. 1

Q. So what was the verdict on `Cc1ccc(Nc2nc(N)nc(N)c2N=O)cc1Cl` in this test?
A. 0

Q. So what was the verdict on `CC(=O)Cc1cccnc1` in this test?
A. 0

---

# growth per entry
tested on: MDA-MB-468 breast; assay: NCI-60 one-dose screen, 48 h (100 = growth as untreated, 0 = no growth, -100 = all killed); settings: 10 µM unless noted
About 83,000 compounds went through this panel and 20% of them were active in at least one assay; those are over-represented in the sample as a whole.
Return type: number; implicit unit %.

Example entries begin here.
Q. Reported growth, compound ClCC(Cl)[C@@H]1CC2C=CC1C2 (some centres undefined) : ____
A. 96

Q. Reported growth, compound `COc1ccc2c(CCCC(c3ccccc3)c3ccccc3)c3[n+](cc2c1OC)CCc1cc2c(cc1-3)OCO2` : ____
A. -73

Q. Reported growth, compound O=C1N(Cc2ccccc2Cl)c2ccccc2C12NN=C(c1ccccc1)S2 (centres undefined) : ____
A. 57.2

Q. Reported growth, compound `C[C@H]1[C@H](C)CC[C@]2(C(=O)NCCNCCN)CC[C@]3(C)C(=CC[C@@H]4[C@@]5(C)CCC(=O)C(C)(C)[C@@H]5CC[C@]43C)[C@H]12` : ____
A. 34

Q. Reported growth, compound CCCCC1COc2cccc3c2N1C=C/C3=C\C(=O)N(C)c1cccc(Cl)c1 (centres undefined) : ____
A. 84.4

New cases:
Q. Reported growth, compound `COC(=O)c1c2c(c(C)[n+]([O-])c1C)C(=O)C=C(NCc1ccc(F)c(Cl)c1)C2=O` : ____
A. -70.5
